System: Staphylococcus sp.
Assay: in vitro antibacterial evaluation, MIC by broth dilution
Type: cell-based
Details: broth dilution, 18 hours at 35° C.; strain GC 4542
Quantity: MIC Staphylococcus aureus (GC 4542) (µg/mL)
Your answer should be a plain number; it is taken to be in µg/mL.

What value of MIC Staphylococcus aureus (GC 4542) has been recorded for this entry: CCCC(C)C1OCC2OC(OC3C(CO)OC(Oc4ccc(CC5NC(=O)C(C(C)c6ccccc6)NC(=O)CNC(=O)C(CO)NC(=O)C(C(O)C6CNC(=N)N6C6OC(CO)C(O)C(O)C6O)NC(=O)C(C(O)C6CNC(=N)N6)NC5=O)cc4)C(O)C3O)C(O)C(O)C2O1 (centres unmarked)
1

What value of MIC Staphylococcus aureus (GC 4542) has been recorded for this entry: COc1ccc(COCC2OC(OC3C(CO)OC(Oc4ccc(CC5NC(=O)C(C(C)c6ccccc6)NC(=O)CNC(=O)C(CO)NC(=O)C(C(O)C6CNC(=N)N6C6OC(CO)C(O)C(O)C6O)NC(=O)C(C(O)C6CNC(=N)N6)NC5=O)cc4)C(O)C3O)C(O)C(O)C2O)c2ccccc12 (centres unmarked)
2

What value of MIC Staphylococcus aureus (GC 4542) has been recorded for this entry: CCCCOC(=O)CCC1OCC2OC(OC3C(CO)OC(Oc4ccc(CC5NC(=O)C(C(C)c6ccccc6)NC(=O)CNC(=O)C(CO)NC(=O)C(C(O)C6CNC(=N)N6C6OC(CO)C(O)C(O)C6O)NC(=O)C(C(O)C6CNC(=N)N6)NC5=O)cc4)C(O)C3O)C(O)C(O)C2O1 (centres unmarked)
1

What value of MIC Staphylococcus aureus (GC 4542) has been recorded for this entry: CC(c1ccccc1)C1NC(=O)CNC(=O)C(CO)NC(=O)C(C(O)C2CNC(=N)N2C2OC(CO)C(O)C(O)C2O)NC(=O)C(C(O)C2CNC(=N)N2)NC(=O)C(Cc2ccc(OC3OC(CO)C(OC4OC5COC(CC6CCN(C(=O)OCc7ccccc7)CC6)OC5C(O)C4O)C(O)C3O)cc2)NC1=O (centres unmarked)
1

What value of MIC Staphylococcus aureus (GC 4542) has been recorded for this entry: CC(C)CC(=O)OC1C(O)C(CO)OC(OC2C(CO)OC(Oc3ccc(CC4NC(=O)C(C(C)c5cccs5)NC(=O)CNC(=O)C(CO)NC(=O)C(C(O)C5CNC(=N)N5C5OC(CO)C(O)C(O)C5O)NC(=O)C(C(O)C5CNC(=N)N5)NC4=O)cc3)C(O)C2O)C1O (centres unmarked) [Example 265b]
8

What value of MIC Staphylococcus aureus (GC 4542) has been recorded for this entry: CC(c1ccccc1)[C@@H]1NC(=O)CNC(=O)[C@H](CO)NC(=O)[C@H](C(O)C2CNC(=N)N2)NC(=O)[C@H](C(O)C2CNC(=N)N2)NC(=O)[C@H](Cc2ccc(O)cc2)NC1=O (some centres unmarked) [Example 280b]
128

What value of MIC Staphylococcus aureus (GC 4542) has been recorded for this entry: CC(C)CC(=O)OC1C(OC2C(CO)OC(Oc3ccc(CC4NC(=O)C(C(C)c5ccc(F)cc5)NC(=O)CNC(=O)C(CO)NC(=O)C(C(O)C5CNC(=N)N5C5OC(CO)C(O)C(O)C5O)NC(=O)C(C(O)C5CNC(=N)N5)NC4=O)cc3)C(O)C2O)OC(CO)C(O)C1O (centres unmarked) [Example 261b]
16

What value of MIC Staphylococcus aureus (GC 4542) has been recorded for this entry: CC(c1ccccc1)C1NC(=O)CNC(=O)C(CO)NC(=O)C(C(O)C2CNC(=N)N2C2OC(CO)C(O)C(O)C2O)NC(=O)C(C(O)C2CNC(=N)N2)NC(=O)C(Cc2ccc(OC3OC(CO)C(OC4OC5COC(c6cccc(Cl)c6)OC5C(O)C4O)C(O)C3O)cc2)NC1=O (centres unmarked)
2
